From: ChEMBL document CHEMBL3045359

Here the recorded MIC is given for each entry.
Tested on: Aspergillus niger
Assay: Antifungal activity against Aspergillus niger after 72 to 96 hr by two-fold serial dilution method
Assay type: functional

molecule	system_tested	MIC
CCC(=O)N1C(c2ccco2)CC(=O)C(C(C)C)C1c1ccco1 (configuration not stated)	Aspergillus niger	50 µg/mL
CC(C)C1C(=O)CC(c2ccco2)NC1c1ccco1 (configuration not stated)	Aspergillus niger	> 100 µg/mL
CC(=O)N1C(c2ccco2)CC(=O)C(C(C)C)C1c1ccco1 (configuration not stated)	Aspergillus niger	50 µg/mL
CC(C)C1/C(=N/O)CC(c2ccco2)NC1c1ccco1 (configuration not stated)	Aspergillus niger	100 µg/mL
C[C@@H]1[C@H](O)[C@@H](C)/C=C/C=C/C=C/C=C/C=C/C=C/C=C/[C@H](O[C@@H]2O[C@H](C)[C@@H](O)[C@H](N)[C@@H]2O)C[C@@H]2O[C@](O)(C[C@@H](O)C[C@@H](O)[C@H](O)CC[C@@H](O)C[C@@H](O)CC(=O)O[C@H]1C)C[C@H](O)[C@H]2C(=O)O [AMPHOTERICIN B]	Aspergillus niger	50 µg/mL

IN: Which MIC reading was recorded for the molecule CC(C)C1C(=O)CC(c2ccco2)N(C(=O)c2ccccc2)C1c1ccco1 (configuration not stated) ?
OUT: 25 µg/mL

IN: Can you share its MIC? I mean this molecule: CC(C)C1C(=O)CC(c2ccco2)N(C=O)C1c1ccco1 (configuration not stated)
OUT: 50 µg/mL

====

System: Aspergillus flavus
Assay: Antifungal activity against Aspergillus flavus after 72 to 96 hr by two-fold serial dilution method
Assay type: functional
measured_metric: MIC (µg/mL)
# value in µg/mL; strip the unit string

Known MIC results, listed for orientation:
compound	MIC, µg/mL
C[C@@H]1[C@H](O)[C@@H](C)/C=C/C=C/C=C/C=C/C=C/C=C/C=C/[C@H](O[C@@H]2O[C@H](C)[C@@H](O)[C@H](N)[C@@H]2O)C[C@@H]2O[C@](O)(C[C@@H](O)C[C@@H](O)[C@H](O)CC[C@@H](O)C[C@@H](O)CC(=O)O[C@H]1C)C[C@H](O)[C@H]2C(=O)O [AMPHOTERICIN B]	50
CC(C)C1C(=O)CC(c2ccco2)N(C(=O)c2ccccc2)C1c1ccco1 (configuration not stated)	25

IN: Item CCC(=O)N1C(c2ccco2)CC(=O)C(C(C)C)C1c1ccco1 (configuration not stated) has what recorded MIC?
OUT: 25

IN: Returns the measured MIC for the input compound. Input: CC(C)C1/C(=N/O)CC(c2ccco2)NC1c1ccco1 (configuration not stated)
OUT: 25

IN: Which MIC reading was recorded for the compound CC(=O)N1C(c2ccco2)CC(=O)C(C(C)C)C1c1ccco1 (configuration not stated) ?
OUT: 50

IN: # get_value(readout='MIC', item= CC(C)C1C(=O)CC(c2ccco2)N(C=O)C1c1ccco1 (configuration not stated) )
OUT: 50

====

Listed here: items and their measured MIC.
Test system: Candida
Assay: Antifungal activity against Candida-6 after 72 to 96 hr by two-fold serial dilution method
Type: functional

IN: For CC(C)C1C(=O)CC(c2ccco2)NC1c1ccco1 (configuration not stated) , what is its reported MIC?
OUT: 50 µg/mL

IN: Request the reported MIC associated with `C[C@@H]1[C@H](O)[C@@H](C)/C=C/C=C/C=C/C=C/C=C/C=C/C=C/[C@H](O[C@@H]2O[C@H](C)[C@@H](O)[C@H](N)[C@@H]2O)C[C@@H]2O[C@](O)(C[C@@H](O)C[C@@H](O)[C@H](O)CC[C@@H](O)C[C@@H](O)CC(=O)O[C@H]1C)C[C@H](O)[C@H]2C(=O)O`
OUT: 25 µg/mL

IN: Find the recorded MIC belonging to CC(C)C1C(=O)CC(c2ccco2)N(C(=O)c2ccccc2)C1c1ccco1 (configuration not stated) and report it.
OUT: 12.5 µg/mL

IN: Request the reported MIC associated with CC(C)C1C(=O)CC(c2ccco2)N(C=O)C1c1ccco1 (configuration not stated)
OUT: 25 µg/mL

IN: # input molecule: CC(=O)N1C(c2ccco2)CC(=O)C(C(C)C)C1c1ccco1 (configuration not stated) ; wanted: its MIC
OUT: 50 µg/mL

IN: I would be grateful if you could share the reported MIC for CCC(=O)N1C(c2ccco2)CC(=O)C(C(C)C)C1c1ccco1 (configuration not stated) .
OUT: 12.5 µg/mL

IN: Could you share which MIC value was measured for CC(C)C1/C(=N/O)CC(c2ccco2)NC1c1ccco1 (configuration not stated) ?
OUT: 50 µg/mL
